Measured V max, listed per entry for reference.
# target-or-system: NTCP (Homo sapiens, UniProt Q14973)
# protocol: Transport kinetics (concentration-dependent uptake) in NTCP-HEK293 cells
# Type: cell-based
# Design: The full-length open reading frames of NTCP, ASBT, and SOAT were cloned; expressed in transfected cells; host or cells: Flp-In T-REX HEK293 (NTCP-HEK293), tetracycline-induced
# condition-context: uptake via NTCP, 1 min, 37°C
# Method: Uptake experiments were initiated by replacing the preincubation buffer by 500 μL transport buffer containing the radiolabeled test compound and were performed at 37°C. Transport was terminated by removing the transport buffer and washing five-times with ice-cold PBS. Cell monolayers were lysed in 1 N NaOH with 0.1% SDS and the cell-associated radioactivity was determined by liquid scintillation counting. FIGURE 2 NTCP, ASBT, and SOAT transport kinetics. […] Uptake was analyzed for 1 min at 37°C. […]
Counter-ions that a name gives are not always drawn.
Note: a bare number is incomplete; add the unit.

Worked cases, answers included:
>>> measured("C[C@H](CCC(=O)NCCS(=O)(=O)O)[C@H]1CC[C@H]2[C@@H]3CC[C@@H]4C[C@H](O)CC[C@]4(C)[C@H]3CC[C@]12C")
"5915 ± 189 pmol/mg protein/min"
>>> measured("C[C@H](CCC(=O)NCCS(=O)(=O)O)[C@H]1CC[C@H]2[C@@H]3[C@H](O)C[C@@H]4C[C@H](O)CC[C@]4(C)[C@H]3C[C@H](O)[C@]12C")
"2395 ± 59 pmol/mg protein/min"
>>> measured("C[C@]12CC[C@@H]3c4ccc(OS(=O)(=O)O)cc4CC[C@H]3[C@@H]1CCC2=O [E1S, Estrone-3-sulfate]")
"2367 ± 170.8 pmol/mg protein/min"

Okay, next one:
Prompt: Dear colleague, please send me the reported V max for C[C@]12CC[C@H](OS(=O)(=O)O)CC1=CC[C@@H]1[C@@H]2CC[C@]2(C)C(=O)CC[C@@H]12 [DHEAS, Dehydroepiandrosterone sulfate] when you can.
Completion: 2198 ± 101.7 pmol/mg protein/min

---

# target-or-system: UniProt Q14973
# Sequence (Q14973 1-349): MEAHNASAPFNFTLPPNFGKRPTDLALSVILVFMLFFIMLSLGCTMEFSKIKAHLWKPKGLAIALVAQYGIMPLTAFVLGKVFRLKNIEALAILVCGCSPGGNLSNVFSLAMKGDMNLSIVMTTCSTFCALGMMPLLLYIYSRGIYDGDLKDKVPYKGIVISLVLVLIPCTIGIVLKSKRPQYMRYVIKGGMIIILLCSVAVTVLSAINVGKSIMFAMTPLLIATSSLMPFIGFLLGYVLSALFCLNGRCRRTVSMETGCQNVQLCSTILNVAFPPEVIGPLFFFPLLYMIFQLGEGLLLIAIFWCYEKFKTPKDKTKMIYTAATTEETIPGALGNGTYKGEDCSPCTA
# protocol: Binding of fluorescent myr-preS1-Al633 peptide to NTCP-HEK293 cells
# Design: The full-length open reading frames of NTCP, ASBT, and SOAT were cloned; expressed in transfected cells; host or cells: Flp-In T-REX HEK293 (NTCP-HEK293), tetracycline-induced
Where a name gives a salt, the structure may show the parent alone.
readout-kind: IC50 (µM)
Just the number please, in µM, no unit attached.

Prompt: Write down measured IC50 (UniProt Q14973) for this compound. C[C@]12CC[C@H](OS(=O)(=O)O)CC1=CC[C@@H]1[C@@H]2CC[C@]2(C)C(=O)CC[C@@H]12 [DHEAS, Dehydroepiandrosterone sulfate]
Completion: 52

Values were extracted from paper PMC8165160.
